FYI, the data here is from the supplement of paper PMC11865577.

Test system: TO-N3-2 (biotin conjugate)
assay_notes: pull-down binding Z-score (relative to library population); higher = stronger binding
particulars: RNA library: Library-2
readout_name: pull-down binding Z-score
# respond with the number and nothing more

Query block: Recorded pull-down binding Z-score for ACAUUUGCAACCUGUGAAGAUGCAAAACUUUAAGUGU [hsa-mir-2053] with TO-N3-2 (biotin conjugate), please?
Result block: -0.701

Query block: Recorded pull-down binding Z-score for GUUGCUUAGAUUACAUGUAAC [hsa-mir-890] with TO-N3-2 (biotin conjugate), please?
Result block: 0.419

Query block: Recorded pull-down binding Z-score for GUUUACGUGAUUCCUGGUUAAUC [hsa-mir-376b] with TO-N3-2 (biotin conjugate), please?
Result block: -0.0759

Query block: Recorded pull-down binding Z-score for UCACUGCUGCUGGCGCCCUGA [hsa-mir-943] with TO-N3-2 (biotin conjugate), please?
Result block: 0.911

Query block: Recorded pull-down binding Z-score for CCCAUCCGUGGGUGGG [IAV_invivo_NA_6_Motif_4+IAV_invivo_NA_6_Motif_4] with TO-N3-2 (biotin conjugate), please?
Result block: -0.95

Query block: Recorded pull-down binding Z-score for UUCGCGGUUGGGCU [hsa-mir-3143] with TO-N3-2 (biotin conjugate), please?
Result block: 0.693

###

Tested on: TO-N3-2 (biotin conjugate)
assay_notes: pull-down binding Z-score (relative to library population); higher = stronger binding
particulars: RNA library: Library-2
# binarize pull-down binding Z-score: threshold -0.3 inclusive, high side YES, low side NO

Query block: Please check the record GGGCUCAUACCC [IAV_invivo_HA_4_Motif_7+IAV_invivo_HA_4_Motif_7] and state if its pull-down binding Z-score is at or above -0.3.
Result block: YES

Query block: Please check the record AGCACUUUCUGUUGUCUGAAAGAAAAGAAAGUGCU [hsa-mir-516a-1_516a-2] and state if its pull-down binding Z-score is at or above -0.3.
Result block: YES

Query block: Please check the record AGGGGUCAUAUCUCUUCUCAGGGAAAGCAGGAGCCCUUCAGCAGGGUCAGGGCCCCU [hsa-mir-6891] and state if its pull-down binding Z-score is at or above -0.3.
Result block: YES

Query block: Please check the record GCACCUCAUGGUGU and state if its pull-down binding Z-score is at or above -0.3.
Result block: NO

Query block: Please check the record AGGGCUGGGAUUACUAAAGCCCU [hsa-mir-1266] and state if its pull-down binding Z-score is at or above -0.3.
Result block: NO

Query block: Please check the record GCUGUUUAAUAGGGGCUGAACAUGUCAACAACUCAUAUGAGUGUGACAUACCCAUUGGUGCAGGUAUAUGCGCUAGUUAUCAGACUCAGACUAAUUCUCCUCGGC and state if its pull-down binding Z-score is at or above -0.3.
Result block: YES

Query block: Please check the record GUGUUUAUUUUUUACUAAAUAG [hsa-mir-4766] and state if its pull-down binding Z-score is at or above -0.3.
Result block: NO

Query block: Please check the record UAUGUGAUUCUACUGCUCACUCAUAUA [hsa-mir-135a-1] and state if its pull-down binding Z-score is at or above -0.3.
Result block: NO

Query block: Please check the record CACCACUUAACCGAAAUUAUGUCUUUACUGGUUAUCGUGUAACUAAAAACAGUAAAGUACAAAUAGGAGAGUACACCUUUGAAAAAGGUGACUAUGGUG and state if its pull-down binding Z-score is at or above -0.3.
Result block: NO
